- Assay Text: Drug repurposing screens with cells derived from glioblastoma tumor samples (AID 1345199); further: on the % scale 0 is the no-effect control and ±100 the full control effect; nearly all actives have a fitted effect of over 40% in size
- Details: GBM patient neurospheres viability, ATP luminescence, 48 h; at 46.1 µM (top of the series); tumour line C
Records with an inconclusive call do not appear.

Molecule | activity, negative = cell killing [%]
C[C@]12CC[C@@H]3c4ccc(O)cc4CC[C@H]3[C@@H]1CC[C@@H]2OP(=O)(O)O | 22.6
OC[C@H]1OC([S-])[C@H](O)[C@@H](O)[C@@H]1O.[Au+] (some centres undefined) | -19.6
C[C@H](CCC(=O)O)[C@H]1CC[C@H]2[C@@H]3[C@H](O)C[C@@H]4C[C@H](O)CC[C@]4(C)[C@H]3C[C@H](O)[C@]12C | -12.6
CCCCCCCCCCCCCCCCCC(=O)OC[C@@H](O)[C@H]1OC[C@H](O)[C@H]1O | -1.68

---

- Test system: 7G8
- Assay Text: qHTS profiling for inhibitors of Plasmodium falciparum proliferation (AID 504749); further: nearly all actives have a fitted effect of over 60% in size
- Details: P. falciparum in erythrocytes, SYBR Green DNA, 72 h; series mostly up to 28.7 µM
Records with an inconclusive call do not appear. The source made the active and inactive calls. Calls follow the shape of the dose curve; as a rule, active = well fitted inhibition curve with a large enough effect; inconclusive = small, poorly fitted or top-dose-only effect; inactive = flat fitted curve, though single readings scatter.
Classes used: Y (active), N (inactive)

Compound | Discrete Label
Cc1ccc(S(=O)(=O)O)cc1C | N
OC1OC[C@@H](O)[C@H](O)[C@@H]1O (stereo not given in full) | N
CC(CCc1ccc(O)cc1)NCC(O)c1ccc(O)cc1 (stereo not given) | N
CC(C)(C)CC(C)(C)c1cc(Cc2cc(C(C)(C)CC(C)(C)C)cc(-n3nc4ccccc4n3)c2O)c(O)c(-n2nc3ccccc3n2)c1 | N
CC(C)c1ncc([N+](=O)[O-])n1C | N
CC12CCC(C[N+](C)(CCC[N+](C)(C)C)C1)C2(C)C (stereo not given) | N
CC(=O)c1ccc2c(c1)N(CCCN1CCN(CCO)CC1)c1ccccc1S2 | Y
CCCOc1cc(N)ccc1C(=O)OCCN(CC)CC | N
CC(C)c1nc(N(C)S(C)(=O)=O)nc(-c2ccc(F)cc2)c1/C=C/C(O)CC(O)CC(=O)O (stereo not given) | N
NC(=S)NS(=O)(=O)c1ccc(N)cc1 | N
FCOC(C(F)(F)F)C(F)(F)F | N
CC1C(=O)CC2C3(C)CCC2(C(C)C(=O)O)C(=O)C13 (stereo not given) | N
CCOC(=O)c1c[nH]c2cc(OCC(C)C)c(OCC(C)C)cc2c1=O | Y
O=P(O)(O)CP(=O)(O)O | N
CC1(C)S[C@@H]2[C@H](NC(=O)C3(N)CCCCC3)C(=O)N2[C@H]1C(=O)O | N
CSc1nc2cc(Oc3cccc(Cl)c3Cl)c(Cl)cc2[nH]1 | Y
CCOc1ccc(S(=O)(=O)O)c2cccnc12 | N
O=S(=O)(O)CC(S)CS (stereo not given) | N
CCc1ccc(S(=O)(=O)O)cc1 | N
CCCC(=O)O | N
OCCCNc1ccccc1 | N
CC(CC=O)CCCC(C)(C)O (stereo not given) | N
Cc1ccccn1 | N
CC1(O)CCC(C(C)(C)O)CC1 (stereo not given) | N
CCCCC | N
[O]=[Bi][O]C(=O)[O][Bi]=[O] | Y
Cc1cc2nc3c(=O)[nH]c(=O)nc-3n(C[C@H](O)[C@H](O)[C@H](O)COP(=O)(O)OP(=O)(O)OC[C@H]3O[C@@H](n4cnc5c(N)ncnc54)[C@H](O)[C@@H]3O)c2cc1C | N
COC(=O)CC[C@H](N)C(=O)O | N
Cc1ncc(C[n+]2csc(CCOP(=O)(O)OP(=O)(O)O)c2C)c(N)n1 | N
CC(C)CCC[C@@H](C)[C@H]1CC[C@H]2[C@@H]3CC[C@@H]4C[C@H](O)CC[C@]4(C)[C@H]3CC[C@]12C | N
CNC(=O)[C@H](Cc1c[nH]c2ccccc12)NC(=O)[C@@H](CC(=O)NO)CC(C)C | Y
C[C@H](CCCC(C)(C)O)[C@H]1CC[C@H]2[C@@H]3CC=C4C[C@@H](O)CC[C@]4(C)[C@H]3CC[C@]12C | Y
NCC[C@H](O)C(=O)N[C@@H]1C[C@H](N)[C@@H](O[C@H]2O[C@H](CN)[C@@H](O)[C@H](O)[C@H]2O)[C@H](O)[C@H]1O[C@H]1O[C@H](CO)[C@@H](O)[C@H](N)[C@H]1O | N
Cc1cc(-c2ccc(N=Nc3ccc4c(S(=O)(=O)O)cc(S(=O)(=O)O)c(N)c4c3O)c(C)c2)ccc1N=Nc1ccc2c(S(=O)(=O)O)cc(S(=O)(=O)O)c(N)c2c1O | N
CCN(CC)CCC(=O)N1c2ccccc2Sc2ccc(Cl)cc21 | Y
CN1C(=O)OC(C)(C)C1=O | N
COc1cc(S(C)=O)ccc1-c1nc2ncccc2[nH]1 (stereo not given) | N
NC(N)=O | N
OCl | N
Cc1ccc(S(=O)(=O)NCl)cc1 | N
O=C(O)[C@H]1C(=CCO)O[C@H]2CC(=O)N12 | N
O=C(O)c1ccc(NC(=O)[C@H](Cc2ccc(O)cc2)NC(=O)c2ccccc2)cc1 | N
CCN(CC)CCCC(C)Nc1cc(/C=C/c2ccccc2Cl)nc2cc(Cl)ccc12 (stereo not given) | Y
CCOc1ccc(NC(=S)Nc2ccc(OCC)cc2)cc1 | N
Nc1nccs1 | N

---

- Tested on: Dd2
- Assay Text: qHTS profiling for inhibitors of Plasmodium falciparum proliferation (AID 504749); further: nearly all actives have a fitted effect of over 60% in size
- Details: P. falciparum in erythrocytes, SYBR Green DNA, 72 h; series mostly up to 28.7 µM
Results filed as inconclusive are left out. The source made the active and inactive calls. Calls follow the shape of the dose curve; as a rule, active = well fitted inhibition curve with a large enough effect; inconclusive = small, poorly fitted or top-dose-only effect; inactive = flat fitted curve, though single readings scatter.
Classes used: True (active), False (inactive)

Compound | Discrete Label
COC1=C(OC)C(=O)C(C/C=C(\C)CC/C=C(\C)CC/C=C(\C)CC/C=C(\C)CC/C=C(\C)CC/C=C(\C)CC/C=C(\C)CC/C=C(\C)CC/C=C(\C)CCC=C(C)C)=C(C)C1=O | False
O=P(O)(O)O | False
CCCCCCCCCCCCCCCCCC(=O)OC[C@@H](O)[C@H]1OC[C@H](O)[C@H]1O | False
C=Cc1ccc(S(=O)(=O)O)cc1 | False
NC(=O)[C@@H]1CCCN1C(=O)[C@H](Cc1cnc[nH]1)NC(=O)[C@@H]1CCC(=O)N1 | False
N=C(N)c1ccc(/C=C/c2ccc(C(=N)N)cc2O)cc1 | True
CC1CC(OC(=O)C(O)c2ccccc2)CC(C)(C)C1 (centres undefined) | False
CCc1ccc(S(=O)(=O)O)cc1 | False
CC(C)O | False
CO/N=C(/C(=O)N[C@@H]1C(=O)N2C(C(=O)O)=C(COC(N)=O)CS[C@H]12)c1ccco1 | False
CN1C(C(=O)Nc2ccccn2)C(=O)c2sc(Cl)cc2S1(=O)=O (centres undefined) | False
O=P(O)(O)OP(=O)(O)O | False
CC(=O)Oc1cccc(C(=O)O)c1OC(C)=O | False
CC(CC=O)CCCC(C)(C)O (centres undefined) | False
C=CCOc1ccc(CC(=O)O)cc1Cl | False
OCl | False
CCCCCCCCCCCC(=O)N(CCO)CCO | False
Cc1cc(=O)c(C(=O)N[C@@H](C(=O)N[C@@H]2C(=O)N3C(C(=O)O)=C(CSc4nnnn4C)CS[C@H]23)c2ccc(O)cc2)c[nH]1 | False
CN(Cc1ccccc1)Cc1ccccc1 | False
CC/C=C\C/C=C\C/C=C\CCCCCCCC(=O)O | False
Cc1cc(C(=O)NCCc2ccc(S(=O)(=O)NC(=O)NN3CCCCCC3)cc2)no1 | False
CCCCC[C@H](O)/C=C/[C@@H]1[C@H]2C/C(=C/CCCC(=O)O)O[C@H]2C[C@H]1O | False
CCOC(=O)c1c[nH]c2cc(OCC(C)C)c(OCC(C)C)cc2c1=O | True
Cc1ncc(C[n+]2csc(CCO)c2C)c(N)n1 | False

---

- Assay Text: qHTS assay for small molecule activators of the human pregnane X receptor (PXR) signaling pathway (AID 720659); further: 0% is about no effect
- Details: DPX-2 HepG2 CYP3A4-luciferase, 24 h; series mostly up to 92.3 µM
Active and inactive are the calls of the source. No rule for the calls is given here.

Compound | outcome
C[C@H]1O[C@@H](O[C@H]2[C@@H](O)C[C@H](O[C@H]3[C@@H](O)C[C@H](O[C@H]4CC[C@@]5(C)[C@H](CC[C@@H]6[C@@H]5C[C@@H](O)[C@]5(C)[C@@H](C7=CC(=O)OC7)CC[C@]65O)C4)O[C@@H]3C)O[C@@H]2C)C[C@H](O)[C@@H]1O | inactive
OCl | inactive
OC[C@H]1O[C@@](CO)(O[C@H]2O[C@H](CO)[C@@H](O)[C@H](O)[C@H]2O)[C@@H](O)[C@@H]1O | inactive
Nc1nccs1 | inactive
OCc1ccccc1 | inactive
OCC(O)CO | inactive
CO/N=C(/C(=O)N[C@@H]1C(=O)N2C(C(=O)O)=C(COC(N)=O)CS[C@H]12)c1ccco1 | inactive
CC1=CCC2CC1C2(C)C (stereo unspecified) | inactive
O=P(O)(O)O | inactive
CCCCC(CC)COS(=O)(=O)O (stereo unspecified) | inactive
Cc1ccc(S(=O)(=O)O)cc1C | inactive

Hello, the source for this data is PubChem BioAssay (NCATS), in case you need it.
